# assayed_system: human P2X3 receptor (Homo sapiens)
# Sequence (P56373 1-397): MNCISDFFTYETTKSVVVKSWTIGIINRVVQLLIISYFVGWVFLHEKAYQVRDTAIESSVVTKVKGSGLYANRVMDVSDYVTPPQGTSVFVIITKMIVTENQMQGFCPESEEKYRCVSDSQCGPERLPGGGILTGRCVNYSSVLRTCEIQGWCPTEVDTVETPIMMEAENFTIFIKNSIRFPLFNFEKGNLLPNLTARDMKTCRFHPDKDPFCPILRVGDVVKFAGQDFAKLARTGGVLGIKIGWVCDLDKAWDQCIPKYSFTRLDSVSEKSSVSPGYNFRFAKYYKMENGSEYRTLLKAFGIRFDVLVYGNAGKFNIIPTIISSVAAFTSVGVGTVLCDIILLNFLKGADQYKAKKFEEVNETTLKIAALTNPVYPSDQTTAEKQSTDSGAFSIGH
# assay_remarks: Intracellular calcium measurement, antagonist activity at human P2X3 receptors (hP2X3 1321N1), Fluo8
# Format: cell-based
# Parameters: expressed in transfected cells; host or cells: human astrocytoma 1321N1 (1312N1 [sic])
# test_settings: column 3); 1321N1 cells, human P2X3, Fluo8, agonist ATP at EC50
measured_attribute: IC50 (nM)

* CCc1cc2n(CC(=O)Nc3ccc(F)cn3)c3c(c(=O)n2n1)CN(CC1CCCN1C(=O)OC(C)(C)C)C3=O (stereo not drawn) [Example 81] | 42
* CCc1cc2n(CC(=O)Nc3ccc(F)cn3)c3c(c(=O)n2n1)CN(CC1CCCN1)C3=O.Cl (stereo not drawn) [Example 239] | 650
* CC(C)N1Cc2c(n(CC(=O)Nc3ccc(F)cn3)c3cc(NC(=O)c4cnn[nH]4)nn3c2=O)C1=O [Example 286] | 33
* CC(C)N1Cc2c(n(CC(=O)Nc3ccc(F)cn3)c3cc(C4CCN(C)C4)nn3c2=O)C1=O (racemic) [Example 249] | 109
* CCc1cc2n(CC(=O)Nc3ccc(F)cn3)c3c(c(=O)n2n1)CN(CC1CCN(C(=O)OC(C)(C)C)CC1)C3=O [Example 89] | 135
* CC(C)N1Cc2c(n(CC(=O)Nc3ccc(F)cn3)c3cc(C4CC4)nn3c2=O)C1=O [Example 56] | 185
* CC(C)N1Cc2c(n(CC(=O)Nc3ccc(Cl)cn3)c3cc(C(C)(C)C)nn3c2=O)C1=O [Example 3] | 37
* COCCN1Cc2c(n(CC(=O)Nc3ccc(F)cn3)c3cc(C4CCOCC4)nn3c2=O)C1=O [Example 97] | 47
* COC[C@H](C)N1Cc2c(n(CC(=O)Nc3ccc(F)cn3)c3cc(C(C)(C)C)nn3c2=O)C1=O [Example 35] | 16
* CCc1cc2n(CC(=O)Nc3ccc(F)cn3)c3c(c(=O)n2n1)CN(C1CCNC1)C3=O (single isomer, unassigned) [Example 278] | 675
* CCOC(=O)c1cc2n(CC(=O)Nc3ccc(F)cn3)c3c(c(=O)n2n1)CN(C(C)C)C3=O [Example 70] | 36
* CC(C)N1Cc2c(n(CC(=O)Nc3ccc(F)cn3)c3cc(C4=CCN(C(=O)OC(C)(C)C)C4)nn3c2=O)C1=O [Example 142] | 7
* COC[C@@H](C)N1Cc2c(n(CC(=O)Nc3ccc(F)cn3)c3cc(C(C)C)nn3c2=O)C1=O [Example 44] | 34
* Cc1ccc(NC(=O)Cn2c3c(c(=O)n4nc(C(C)(C)C)cc24)CN(C2CCC2)C3=O)nc1 [Example 19] | 740
* Cc1cc2n(CC(=O)Nc3ccc(F)cn3)c3c(c(=O)n2n1)CN([C@@H](C)C1CC1)C3=O [Example 50] | 155
